SUBJECT OF TEST: glutathione-S-transferase (GST) tagged LXRalpha LBD (ligand binding domain) (Homo sapiens, UniProt Q13133)
Sequence (Q13133 209-447 limits assumed): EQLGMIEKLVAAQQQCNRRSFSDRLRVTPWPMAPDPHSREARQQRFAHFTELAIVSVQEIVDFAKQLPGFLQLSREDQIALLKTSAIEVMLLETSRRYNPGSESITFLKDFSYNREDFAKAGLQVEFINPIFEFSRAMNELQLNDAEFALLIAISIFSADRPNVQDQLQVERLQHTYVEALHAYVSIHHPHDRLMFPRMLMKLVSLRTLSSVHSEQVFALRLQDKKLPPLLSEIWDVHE
TEST SUMMARY: LanthaScreen TR-FRET Liver X Receptor Coactivator Assay, LXR alpha-LBD
MEASUREMENT CONDITIONS: potency (Inflection Point) of co-activator recruitment, TR-FRET; read-out: LXR alpha IP
pEC50: −log10 of the molar value.
Decide using pEC50: a value greater than or equal to 5 is satisfied, a smaller one is not satisfied.

CN(C)C(=O)c1ccc(-c2cnc(N3CC4CC3CN4C(=O)OC(C)(C)C)c(C#N)c2)cc1Cl (stereo not drawn)
not satisfied
CN(C)C(=O)c1ccc(-c2ccc(N3CCN(C(=O)c4ccccc4Cl)CC3)c(Cl)c2)cc1Cl
satisfied

Q: Decide: is the reported value of pEC50 for CNC(=O)c1ccc(-c2cnc(N3CCN(C(=O)OC(C)(C)C)CC3)c(C#N)c2)cc1Cl equal to or greater than 5?
Result: not satisfied

Q: Decide: is the reported value of pEC50 for C=Cc1cc(-c2ccc(C(=O)N(C)C)c(Cl)c2)cnc1N1CCN(C(=O)OC(C)(C)C)CC1 equal to or greater than 5?
Result: satisfied

Q: Decide: is the reported value of pEC50 for CN(C)C(=O)c1ccc(-c2ccc(N3CCN(C(=O)c4c(F)cccc4Cl)CC3)cc2)cc1Cl equal to or greater than 5?
Result: not satisfied

Q: Decide: is the reported value of pEC50 for CO[C@@](C(=O)N1CCN(c2ncc(-c3ccc(C(=O)N(C)C)c(Cl)c3)cc2C#N)CC1)(c1ccccc1)C(F)(F)F equal to or greater than 5?
Result: not satisfied

Q: Decide: is the reported value of pEC50 for CNC(=O)c1ccc(-c2cnc(N3CCN(C(=O)[C@](O)(c4ccccc4)C(F)(F)F)CC3)c(C#N)c2)cc1Cl equal to or greater than 5?
Result: satisfied

Q: Decide: is the reported value of pEC50 for CN(C)C(=O)c1ccc(-c2cnc(N3CCN(C(=O)C4(c5ccccc5)CC4)CC3)c(C#N)c2)cc1Cl equal to or greater than 5?
Result: satisfied

Q: Decide: is the reported value of pEC50 for CN(C)C(=O)c1ccc(-c2cnc(N3CCN(C(=O)Cc4cn5ccsc5n4)CC3)c(C#N)c2)cc1Cl equal to or greater than 5?
Result: not satisfied

Q: Decide: is the reported value of pEC50 for CN(C)C(=O)c1ccc(-c2ccc(N3CCCN(C(=O)OC(C)(C)C)CC3)cc2)cc1Cl equal to or greater than 5?
Result: satisfied
